The reported measurements were obtained from patent US8138183B2.

Quick reference for IC50 among some molecules
# targetEntity: recombinant mTOR (Homo sapiens)
# Sequence (P42345 1362-2549): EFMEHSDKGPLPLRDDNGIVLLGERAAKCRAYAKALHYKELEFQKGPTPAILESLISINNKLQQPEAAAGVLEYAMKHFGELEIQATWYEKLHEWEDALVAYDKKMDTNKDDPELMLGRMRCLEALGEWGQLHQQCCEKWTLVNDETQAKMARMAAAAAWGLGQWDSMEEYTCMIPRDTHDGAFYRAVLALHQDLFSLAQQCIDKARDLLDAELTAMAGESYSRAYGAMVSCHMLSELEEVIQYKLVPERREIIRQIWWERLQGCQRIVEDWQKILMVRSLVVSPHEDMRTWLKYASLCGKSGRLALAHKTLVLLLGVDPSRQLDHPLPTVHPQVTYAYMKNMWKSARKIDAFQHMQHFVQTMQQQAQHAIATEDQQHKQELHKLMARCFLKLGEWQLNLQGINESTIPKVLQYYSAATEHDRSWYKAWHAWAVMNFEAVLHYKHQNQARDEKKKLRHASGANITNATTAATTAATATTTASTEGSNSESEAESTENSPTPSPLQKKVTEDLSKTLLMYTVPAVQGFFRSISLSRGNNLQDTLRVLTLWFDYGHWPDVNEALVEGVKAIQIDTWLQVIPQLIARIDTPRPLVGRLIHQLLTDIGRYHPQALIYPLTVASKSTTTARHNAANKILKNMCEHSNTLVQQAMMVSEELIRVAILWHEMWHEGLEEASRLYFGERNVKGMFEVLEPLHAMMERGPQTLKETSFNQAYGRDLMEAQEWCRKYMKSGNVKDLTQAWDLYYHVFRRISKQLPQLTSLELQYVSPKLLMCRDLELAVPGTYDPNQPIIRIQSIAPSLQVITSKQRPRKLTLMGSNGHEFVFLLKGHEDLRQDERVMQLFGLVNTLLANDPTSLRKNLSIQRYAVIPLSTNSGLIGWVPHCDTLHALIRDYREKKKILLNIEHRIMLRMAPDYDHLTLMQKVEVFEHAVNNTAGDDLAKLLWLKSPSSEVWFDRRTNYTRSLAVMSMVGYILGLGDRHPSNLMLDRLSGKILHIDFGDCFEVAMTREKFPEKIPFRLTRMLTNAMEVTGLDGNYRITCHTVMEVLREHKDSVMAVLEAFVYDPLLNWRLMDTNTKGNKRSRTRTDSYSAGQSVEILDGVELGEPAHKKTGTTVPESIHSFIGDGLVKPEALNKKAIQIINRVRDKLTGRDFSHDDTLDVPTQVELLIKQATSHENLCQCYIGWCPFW
# protocolDescription: In Vitro mTOR Kinase Assay (Echo), Test (a)(ii) (AlphaScreen)
# Format: biochemical
# cond: Echo acoustic dispensing

{"columns": ["cpdSmiles", "IC50"],
 "data": [
  ["C[C@H]1COCCN1c1cc(C(C)(C)S(C)(=O)=O)nc(-c2ccc(NC(=S)NCCN(C)C)cc2)n1", "305 nM"],
  ["CNC(=S)Nc1ccc(-c2nc(N3CCOC[C@@H]3C)cc(C(C)(C)S(C)(=O)=O)n2)cc1", "5.1 nM"],
  ["CCNC(=S)Nc1ccc(-c2nc(N3CCOC[C@@H]3C)cc(C(C)(C)O)n2)cc1", "37.4 nM"],
  ["CCNC(=S)Nc1ccc(-c2nc(N3CCOC[C@@H]3C)cc(C(C)(C)S(=O)(=O)c3ccccc3)n2)cc1", "12.4 nM"]
]}

----------
# targetEntity: recombinant mTOR (Homo sapiens)
# protocolDescription: In Vitro mTOR Kinase Assay (Echo), Test (a)(ii) (AlphaScreen)
# Assay type: biochemical
# cond: Echo acoustic dispensing
measurementName: log10 IC50 (log10 of the value in nM)

{"columns": ["molecule", "targetEntity", "log10 IC50"],
 "data": [
  ["C[C@H]1COCCN1c1cc(C(C)(C)O)nc(-c2ccc(NC(=S)NCCO)cc2)n1 [Example 5]", "recombinant mTOR (Homo sapiens)", 0.90],
  ["C[C@H]1COCCN1c1cc(CS(C)(=O)=O)nc(-c2ccc(NC(=S)NC3CC3)cc2)n1 [Example 1]", "recombinant mTOR (Homo sapiens)", 1.29],
  ["CNC(=S)Nc1ccc(-c2nc(N3CCOC[C@@H]3C)cc(C(C)(C)S(=O)(=O)c3ccccc3)n2)cc1 [Example 3]", "recombinant mTOR (Homo sapiens)", 1.04],
  ["CNC(=S)Nc1ccc(-c2nc(N3CCOC[C@@H]3C)cc(C(C)(C)S(=O)(=O)CCCO)n2)cc1 [Example 4b]", "recombinant mTOR (Homo sapiens)", 2.19],
  ["C[C@H]1COCCN1c1cc(C(C)(C)O)nc(-c2ccc(NC(=S)NC3CC3)cc2)n1 [Example 5b]", "recombinant mTOR (Homo sapiens)", 1.58],
  ["C[C@H]1COCCN1c1cc(C(C)(C)S(=O)(=O)CCCO)nc(-c2ccc(NC(=S)NCCO)cc2)n1 [Example 4a]", "recombinant mTOR (Homo sapiens)", 1.19],
  ["C[C@H]1COCCN1c1cc(CS(C)(=O)=O)nc(-c2ccc(NC(=S)Nc3ccc(F)cc3)cc2)n1 [Example 1d]", "recombinant mTOR (Homo sapiens)", 1.33],
  ["C[C@H]1COCCN1c1cc(CS(C)(=O)=O)nc(-c2ccc(NC(=S)Nc3ccccc3)cc2)n1 [Example 1b]", "recombinant mTOR (Homo sapiens)", 1.91],
  ["CCNC(=S)Nc1ccc(-c2nc(CS(C)(=O)=O)cc(N3CCOC[C@@H]3C)n2)cc1 [Example 1a]", "recombinant mTOR (Homo sapiens)", 1.25],
  ["CCNC(=S)Nc1ccc(-c2nc(N3CCOC[C@@H]3C)cc(C(C)(C)S(=O)(=O)CCCO)n2)cc1 [Example 4c]", "recombinant mTOR (Homo sapiens)", 1.77],
  ["CNC(=S)Nc1ccc(-c2nc(N3CCOC[C@@H]3C)cc(C(C)(C)O)n2)cc1 [Example 5a]", "recombinant mTOR (Homo sapiens)", 1.56],
  ["CCNC(=S)Nc1ccc(-c2nc(N3CCOC[C@@H]3C)cc(C(C)(C)S(C)(=O)=O)n2)cc1 [Example 2b]", "recombinant mTOR (Homo sapiens)", 0.83],
  ["C[C@H]1COCCN1c1cc(C(C)(C)S(=O)(=O)c2ccccc2)nc(-c2ccc(NC(=S)NC3CC3)cc2)n1 [Example 3a]", "recombinant mTOR (Homo sapiens)", 0.86],
  ["COc1ccc(NC(=S)Nc2ccc(-c3nc(CS(C)(=O)=O)cc(N4CCOC[C@@H]4C)n3)cc2)cc1 [Example 1c]", "recombinant mTOR (Homo sapiens)", 1.84],
  ["C[C@H]1COCCN1c1cc(C(C)(C)S(C)(=O)=O)nc(-c2ccc(NC(=S)NC3CC3)cc2)n1 [Example 2]", "recombinant mTOR (Homo sapiens)", 0.68],
  ["C[C@H]1COCCN1c1cc(C(C)(C)S(=O)(=O)c2ccccc2)nc(-c2ccc(NC(=S)NCCO)cc2)n1 [Example 3c]", "recombinant mTOR (Homo sapiens)", 0.49],
  ["C[C@H]1COCCN1c1cc(C(C)(C)S(=O)(=O)CCCO)nc(-c2ccc(NC(=S)NC3CC3)cc2)n1 [Example 4]", "recombinant mTOR (Homo sapiens)", 2.21]
]}
